- Tested on: Estrogen receptor (Homo sapiens) (UniProt P03372)
- Sequence (P03372 whole entry, looked up): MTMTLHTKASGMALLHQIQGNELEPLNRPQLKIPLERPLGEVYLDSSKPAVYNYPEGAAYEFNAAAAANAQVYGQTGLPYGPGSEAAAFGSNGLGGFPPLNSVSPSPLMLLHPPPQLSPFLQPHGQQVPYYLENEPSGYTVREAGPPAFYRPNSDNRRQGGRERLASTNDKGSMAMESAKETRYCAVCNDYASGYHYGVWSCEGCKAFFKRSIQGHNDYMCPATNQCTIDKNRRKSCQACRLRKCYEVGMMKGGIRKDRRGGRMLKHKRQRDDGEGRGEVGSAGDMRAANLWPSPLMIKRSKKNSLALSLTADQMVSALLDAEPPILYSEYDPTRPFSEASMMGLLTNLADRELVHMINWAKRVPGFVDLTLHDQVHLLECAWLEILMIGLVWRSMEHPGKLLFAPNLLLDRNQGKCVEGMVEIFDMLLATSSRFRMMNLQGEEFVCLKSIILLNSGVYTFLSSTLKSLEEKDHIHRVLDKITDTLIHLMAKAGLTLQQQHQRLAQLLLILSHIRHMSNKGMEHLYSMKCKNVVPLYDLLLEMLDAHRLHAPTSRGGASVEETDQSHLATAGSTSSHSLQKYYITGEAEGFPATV
- Experiment summary: CCTE_Deisenroth_AIME_96WELL_LUC_Inactive: CCTE's 96-well Estrogen Receptor Transactivation Assay without AIME metabolic competence (ERTA luciferase; metabolism negative), Deisenroth Lab (AID 2284025)
- Description: CCTE_Deisenroth_AIME_96WELL (AIME metabolism assay) is a cell-based, single-readout assay that uses VM7Luc4E2, a human mammary gland/breast cell line, with measurements taken at 24 hour after chemical dosing in a 96-well plate.CCTE_Deisenroth_AIME_96WELL_LUC_Inactive is one of four assay components measured or calculated from the CCTE_Deisenroth_AIME_96WELL assay. […]
Records with an inconclusive call do not appear. Active and inactive are the calls of the source. Rule for the calls: active = hit-call score of the fitted dose curve at least 0.9, where 1 is the maximum; inconclusive = response in the unintended direction; inactive = score below 0.9.
Could you please pick one outcome from this set? active, inactive

Req: Record request — test call for CCCCOC(=O)c1ccccc1C(=O)OCCCC
Resp: active

Req: Record request — test call for COc1ccc(C(c2ccc(OC)cc2)C(Cl)(Cl)Cl)cc1
Resp: active

Req: Record request — test call for Oc1ccccc1-c1ccccc1
Resp: active

Req: Record request — test call for CCCCC(CC)COC(=O)c1ccccc1C(=O)OCC(CC)CCCC (centres undefined)
Resp: inactive
